assay: NCI Yeast Anticancer Drug Screen. Data for the bub3 strain (AID 167); details: S. cerevisiae bub3 mutant strain, at 50.0 µM (retest, dose inferred, filed as 5.0), stronger effect = higher value
This is part of a sample that, as a whole, favours compounds with a hit. Of some 79,000 tested, about 15% had one in any assay.
MEASURED_QUANTITY: growth inhibition (%)
One number for each entry, in %.

Observe how each entry below is paired with its result.
[
  {
    "COMPOUND": "C[CH2][Sn]([Br])([CH2]C)[c]1ccccc1CN(C)C",
    "MEASURED_QUANTITY": "growth inhibition",
    "UNIT_SPEC": "%",
    "RECORDED_NUMBER": 78
  },
  {
    "COMPOUND": "CC1(C)C2CCC([CH2][Hg][Cl])C1C2 (configuration not stated)",
    "MEASURED_QUANTITY": "growth inhibition",
    "UNIT_SPEC": "%",
    "RECORDED_NUMBER": 98
  },
  {
    "COMPOUND": "CCC[CH2][Sn-]([CH2]CCC)([CH2]CCC)[O]c1cc(Cl)c(Cl)cc1Cl",
    "MEASURED_QUANTITY": "growth inhibition",
    "UNIT_SPEC": "%",
    "RECORDED_NUMBER": 100
  },
  {
    "COMPOUND": "C#CCN1C(=O)N(CC#C)C(=O)C(CC#C)(C(CC=C)c2ccccc2)C1=O (configuration not stated)",
    "MEASURED_QUANTITY": "growth inhibition",
    "UNIT_SPEC": "%",
    "RECORDED_NUMBER": 98
  },
  {
    "COMPOUND": "O=c1ccc(N=Cc2ccc(N(CCCl)CCCl)cc2)ccc1O",
    "MEASURED_QUANTITY": "growth inhibition",
    "UNIT_SPEC": "%",
    "RECORDED_NUMBER": 93
  },
  {
    "COMPOUND": "COc1ccc(CC2C(=O)NC(C)C(=O)N(C)C3C(=O)N(C)C(Cc4ccc(O)c(c4)Oc4ccc(cc4)C3O)C(=O)NC(C)C(=O)NC(C)C(=O)N2C)cc1 (configuration not stated) (tested in a mixture with another compound)",
    "MEASURED_QUANTITY": "growth inhibition",
    "UNIT_SPEC": "%",
    "RECORDED_NUMBER": 99
  },
  {
    "COMPOUND": "CC(Br)C(=O)C(CCN(C)C)(c1ccccc1)c1ccc(Br)s1 (configuration not stated)",
    "MEASURED_QUANTITY": "growth inhibition",
    "UNIT_SPEC": "%",
    "RECORDED_NUMBER": -5
  },
  {
    "COMPOUND": "COc1ccc([As](O[As](c2ccc(OC)cc2)c2ccc(OC)cc2)c2ccc(OC)cc2)cc1",
    "MEASURED_QUANTITY": "growth inhibition",
    "UNIT_SPEC": "%",
    "RECORDED_NUMBER": 99
  }
]

Quick request: growth inhibition for each listed item, please.
1. CCOC(=O)NP(=O)(NNc1ccccc1)NNc1ccccc1
2. O=C1[O][Hg][c]2c1cccc2[N+](=O)[O-]
3. Cc1cc(CCN)c(C)c2c1oc1ccccc12
4. COC(=O)C1=C(C(=O)OC)C2(C)OC1c1ccccc12 (configuration not stated)
5. COc1cc(/C=C/[N+](=O)[O-])cc(Br)c1OC
6. COc1cc(/C=C/[N+](=O)[O-])cc(OC)c1OC

stdout:
98
100
96
98
98
100
